- system.under.test: CDK2/Cyclin E1 (Homo sapiens, UniProt P24941)
- Construct: purchased 14-475
- procedure.details: ADPGLO (CDK2/E1-37 C), ADP-Glo Luminescent Kinase Assay
- Format: biochemical
- experimental.conditions: 0.18 nM CDK2/Cyclin E1, 100 μM ATP, Histone H1, 37° C.
Quick reference for IC50 among some molecules

Some entries whose results are on file:
molecule="CC(c1nc(C2CN(C(=O)c3cnc(O)cn3)CC23CN(C(=O)[C@H]2CC2(F)F)C3)no1)n1ccc(C2CCCC2)n1 (stereo partly drawn)" endpoint_label=IC50 assay_result="0.5 to 5 µM"
molecule="O=C(c1cnn(Cc2cccc3c2CCNC3)c1)N1CC(c2nnc(C(F)(F)c3ccc(Cl)c(Cl)c3)o2)C2(C1)CN(C(=O)C1(C(F)(F)F)CC1)C2 (stereo not drawn)" endpoint_label=IC50 assay_result="> 10 µM"

Qu. Please look at this molecule and report its IC50: COC(=O)c1ccccc1Cn1cc(C(=O)N2CC(c3noc(C(C)n4ccc(C5(C(F)(F)F)CC5)n4)n3)C3(C2)CN(C(=O)C2(C(F)(F)F)CC2)C3)cn1 (stereo not drawn)
Ans. > 10 µM

###

- system.under.test: CDK2/Cyclin E1 (Homo sapiens)
- Construct: purchased 14-475
- procedure.details: Caliper Assay (LabChip EZ Reader mobility shift assay), inhibition of CDK2/Cyclin E1 activity
- Type: biochemical
- experimental.conditions: 2.5 nM CDK2/Cyclin E1(14-475), 100 μM ATP, 30 min preincubation; read-out: Caliper Assay (CDK2/CCNE1): IC50
- Method: Inhibition of CDK2/Cyclin E1 activity in the presence of compounds of the present disclosure was evaluated using a Caliper LabChip® EZ Reader mobility shift assay. […] The peptide substrate and product were measured, and the conversion ratio was used to determine the inhibition (as % activity and IC50 values) of CDK2/Cyclin E1. […]
pIC50: −log10 of the molar value.
endpoint.label: pIC50

Please review the following examples before continuing.
compound="CC1(C)C[C@@H]1C(=O)N1CC2(CN(C(=O)c3cnn(Cc4ccccc4)c3)CC2c2nnc(CC3CCOCC3)o2)C1 (stereo partly drawn) [I-12]" assay_result="5.00 to 6.00"
compound="CC(c1nc(C2CN(C(=O)c3cnn(Cc4cccc(C(=O)O)c4)c3)CC23CN(C(=O)[C@H]2CC2(C)C)C3)no1)n1ccc(C2CCCC2)n1 (stereo partly drawn) [I-131]" assay_result="≥ 8.00"
compound="CC(c1nc(C2CN(C(=O)c3cnn(Cc4ccc(C#N)cc4)c3)CC23CN(C(=O)[C@H]2CC2(C)C)C3)no1)n1ccc(C2CCCC2)n1 (stereo partly drawn) [I-133]" assay_result="≥ 8.00"

Qu. For CC1(C)C[C@@H]1C(=O)N1CC2(CN(C(=O)c3cncs3)CC2c2nnc(C(F)(F)c3ccc(Br)cc3)o2)C1 (stereo partly drawn) [I-69] , write its pIC50.
Ans. 6.00 to 7.00

Qu. Check the records and state pIC50 for CC(=O)N1CC2(C1)CN(C(=O)c1cncs1)CC2c1nnc(C(F)(F)c2ccc(Cl)c(Cl)c2)o1 (stereo not drawn) [I-196]
Ans. < 5.00

Qu. Give recorded pIC50. CC(C)(c1coc(C2CCCC2)n1)c1nc(C2CN(C(=O)c3cncs3)CC23CN(C(=O)[C@H]2CC2(C)C)C3)no1 (stereo partly drawn) [I-62]
Ans. 7.00 to 8.00

Qu. Answer with the recorded pIC50 of O=C(c1cncs1)N1CC(c2nnc(C(F)(F)c3ccc(Cl)c(Cl)c3)o2)C2(C1)CN(C(=O)[C@H]1CCCO1)C2 (stereo partly drawn) [I-157] only.
Ans. 5.00 to 6.00

Qu. Give recorded pIC50. CC1(C)C[C@@H]1C(=O)N1CC2(CN(C(=O)c3cncs3)CC2c2nnc(Cc3nc4ccccc4o3)o2)C1 (stereo partly drawn) [I-67]
Ans. 5.00 to 6.00

Qu. Give reported pIC50 value for CC1(C)C[C@@H]1C(=O)N1CC2(CN(C(=O)c3cnn(Cc4ccccc4)c3)CC2c2nnc(Cc3ccc(Cl)c(Cl)c3)o2)C1 (stereo partly drawn) [I-24]
Ans. 6.00 to 7.00

###

- system.under.test: CDK2/Cyclin E1 (Homo sapiens)
- Construct: purchased 14-475
- procedure.details: ADPGLO (CDK2/E1-37 C), ADP-Glo Luminescent Kinase Assay
- Assay type: biochemical
- experimental.conditions: 0.18 nM CDK2/Cyclin E1, 100 μM ATP, Histone H1, 37° C.
pIC50: −log10 of the molar value.
endpoint.label: pIC50

molecule="COC(=O)c1ccc(Cn2cc(C(=O)N3CC(c4noc(C(C)n5ccc(C6CCCC6)n5)n4)C4(C3)CN(C(=O)[C@H]3CC3(C)C)C4)cn2)cn1 (stereo partly drawn)" system_under_test="CDK2/Cyclin E1 (Homo sapiens)" endpoint_label=pIC50 assay_result="5.30 to 6.30"
molecule="CC(c1nc(C2CN(C(=O)c3cnn(Cc4nnnn4C)c3)CC23CN(C(=O)[C@H]2CC2(C)C)C3)no1)n1ccc(C2CCCC2)n1 (stereo partly drawn)" system_under_test="CDK2/Cyclin E1 (Homo sapiens)" endpoint_label=pIC50 assay_result="5.30 to 6.30"

Continue with the next molecule.
Qu. Return pIC50 (reported value) for this molecule: O=C(c1cn[nH]c1C(F)(F)F)N1CC(c2nnc(C(F)(F)c3ccc(Cl)c(Cl)c3)o2)C2(CN(CC3CCCO3)C2)C1 (stereo not drawn)
Ans. < 5.00

###

- system.under.test: CDK2/Cyclin E1 (Homo sapiens)
- Construct: purchased 14-475
- procedure.details: ADPGLO (CDK2/E1-37 C), ADP-Glo Luminescent Kinase Assay
- Type: biochemical
- experimental.conditions: 0.18 nM CDK2/Cyclin E1, 100 μM ATP, Histone H1, 37° C.
pIC50: −log10 of the molar value. Where a name gives a salt, the structure may show the parent alone.
endpoint.label: pIC50

Qu. Could you please provide reported pIC50 for CC(c1nc(C2CN(C(=O)c3cncs3)CC23CN(C(=O)[C@H]2CC2(C)C)C3)no1)n1ccc(C2CCCC2)n1 (single isomer, unassigned) [I-36 2nd] ? Thanks!
Ans. < 5.00

Qu. Report pIC50 for O=C(c1cnc(O)cn1)N1CC(c2nnc(C(COCc3ccccc3)c3cccc(C4CCCCC4)c3)o2)C2(C1)CN(C(=O)C1(C(F)(F)F)CC1)C2 (stereo not drawn) [I-107]
Ans. ≥ 6.30

Qu. Quote pIC50 reported for O=C(c1[nH]ncc1C(F)(F)F)N1CC(c2nnc(C(F)(F)c3ccc(Cl)c(Cl)c3)o2)C2(CN(CC3CCCO3)C2)C1 (stereo not drawn) [I-136] please.
Ans. < 4.00

Qu. Please give measured pIC50 of the following entry: O=C(c1ccn[nH]1)N1CC(c2nnc(C(F)(F)c3ccc(Cl)c(Cl)c3)o2)C2(CN(CC3CCCO3)C2)C1 (stereo not drawn) [I-139, formate]
Ans. < 4.00

Qu. Consider the molecule CC(c1nc(C2CN(C(=O)c3cnn(Cc4ccc(C(=O)O)c(O)c4)c3)CC23CN(C(=O)[C@H]2CC2(C)C)C3)no1)n1ccc(C2CCCC2)n1 (stereo partly drawn) [I-122] and give its recorded pIC50.
Ans. 5.00 to 5.30

Qu. Check the records and state pIC50 for COc1cn[nH]c1C(=O)N1CC(c2nnc(C(F)(F)c3ccc(Cl)c(Cl)c3)o2)C2(C1)CN(C(=O)[C@H]1CC1(F)F)C2 (stereo partly drawn) [I-137]
Ans. < 5.00

###

- system.under.test: CDK2/Cyclin E1 (Homo sapiens, UniProt P24941)
- Construct: purchased 14-475
- procedure.details: Caliper Assay (LabChip EZ Reader mobility shift assay), inhibition of CDK2/Cyclin E1 activity
- Type: biochemical
- experimental.conditions: 2.5 nM CDK2/Cyclin E1(14-475), 100 μM ATP, 30 min preincubation; read-out: Caliper Assay (CDK2/CCNE1): IC50
endpoint.label: IC50

Please review the entries below; each comes with its answer.
compound="CC1(C)C[C@@H]1C(=O)N1CC2(CN(C(=O)c3cncs3)CC2(F)c2nnc(C(F)(F)c3ccc(Cl)c(Cl)c3)o2)C1 (single isomer, unassigned) [I-38 2nd]" system_under_test="CDK2/Cyclin E1 (Homo sapiens, UniProt P24941)" endpoint_label=IC50 assay_result="1 to 10 µM"
compound="CC1(C)C[C@@H]1C(=O)N1CC2(CN(C(=O)c3cncs3)CC2c2nnc(Cc3cc4ccccc4[nH]3)o2)C1 (stereo partly drawn)" system_under_test="CDK2/Cyclin E1 (Homo sapiens, UniProt P24941)" endpoint_label=IC50 assay_result="1 to 10 µM"
compound="C[C@@H](NC(=O)c1coc(C2CN(C(=O)c3cnn(Cc4ccccc4)c3)CC23CN(C(=O)[C@H]2CC2(C)C)C3)n1)c1ccccc1 (stereo partly drawn)" system_under_test="CDK2/Cyclin E1 (Homo sapiens, UniProt P24941)" endpoint_label=IC50 assay_result="1 to 10 µM"
compound="CC1(C)C[C@@H]1C(=O)N1CC2(CN(C(=O)c3cncs3)CC2c2ncc(Cc3ccc(C(F)(F)F)c(Cl)c3)o2)C1 (stereo partly drawn)" system_under_test="CDK2/Cyclin E1 (Homo sapiens, UniProt P24941)" endpoint_label=IC50 assay_result="0.1 to 1 µM"
compound="C[C@@H](NC(=O)c1coc(C2CN(C(=O)c3cnn(Cc4ccccc4)c3)CC23CN(C(=O)[C@H]2CC2(C)C)C3)n1)C1CCCCC1 (stereo partly drawn)" system_under_test="CDK2/Cyclin E1 (Homo sapiens, UniProt P24941)" endpoint_label=IC50 assay_result="0.01 to 0.1 µM"

Now for another entry.
Qu. Find the measured IC50 of O=C(c1cncs1)N1CC(c2nc3cc(Oc4ccccc4)ccc3o2)C2(C1)CN(C(=O)[C@H]1CC1(F)F)C2 (stereo partly drawn) with CDK2/Cyclin E1 (Homo sapiens, UniProt P24941) as test system.
Ans. > 10 µM
